# experimental.system: Sulfhydryl oxidase 1 (Homo sapiens) (UniProt O00391)
# Sequence (O00391 whole entry, looked up): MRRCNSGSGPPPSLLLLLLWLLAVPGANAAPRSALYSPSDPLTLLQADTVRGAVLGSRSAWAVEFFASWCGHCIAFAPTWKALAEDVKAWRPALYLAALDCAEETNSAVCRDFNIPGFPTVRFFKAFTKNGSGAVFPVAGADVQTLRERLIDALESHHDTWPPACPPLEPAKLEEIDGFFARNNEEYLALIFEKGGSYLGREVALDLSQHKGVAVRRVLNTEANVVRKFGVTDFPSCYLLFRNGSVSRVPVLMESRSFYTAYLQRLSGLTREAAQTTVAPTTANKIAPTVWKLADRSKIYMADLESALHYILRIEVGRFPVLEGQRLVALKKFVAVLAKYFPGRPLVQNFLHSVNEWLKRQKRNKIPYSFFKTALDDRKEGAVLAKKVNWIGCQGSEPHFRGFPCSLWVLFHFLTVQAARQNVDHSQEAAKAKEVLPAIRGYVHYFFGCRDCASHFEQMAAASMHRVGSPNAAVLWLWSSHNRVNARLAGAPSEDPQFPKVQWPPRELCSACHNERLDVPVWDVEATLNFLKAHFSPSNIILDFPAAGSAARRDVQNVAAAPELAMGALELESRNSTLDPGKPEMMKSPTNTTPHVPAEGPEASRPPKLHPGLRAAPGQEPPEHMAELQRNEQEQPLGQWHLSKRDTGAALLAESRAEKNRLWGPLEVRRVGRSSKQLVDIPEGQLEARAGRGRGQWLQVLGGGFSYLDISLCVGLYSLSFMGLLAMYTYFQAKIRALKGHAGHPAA
# assay.protocol: QSOX1 binders by thermal stabilization, confirmation, QSOX1 inhibitor project, biophysical, protein thermal shift, single concentration (AID 1347422);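 also: dTm is compound Tm minus mean Tm of DMSO-only wells on that plate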
# condition.parameters: recombinant hQSOX1 thermal shift, Sypro Orange, at 25 µM, stronger effect = higher value
Over roughly 1,000 compounds, “thermal shift dTm” has its median near 0.19; the highest 2% begin near 1.7. This excerpt belongs to a sample that is enriched for the highest values. Activity calls are given as the source filed them.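 The calls were made as follows: active = mean rise in melting temperature of at least 1 degC over same-plate control wells; inactive = below that, where a call was filed.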
experimental.readout: thermal shift dTm

Record thermal shift dTm per entry; entries follow.
1. O=c1nc2n(c3cc(Cl)ccc13)CC(O)=C2c1ccccc1
2. Clc1cccc(-c2cn3ccccc3n2)c1
3. Cc1ccc2ccc(C(Nc3ccccn3)c3ccc(Cl)cc3)c(O)c2n1 (stereo unspecified)
4. CC(=O)Nc1ccc(C(=O)CSc2ccc3ccccc3n2)cc1
5. C=CCc1c(C)nc2c(-c3ccccc3)cnn2c1NCc1cccnc1

Ans:
1. 1.08 °C (active)
2. 0.71 °C
3. 0.57 °C
4. 1.22 °C (active)
5. -0.08 °C (inactive)

Q: # input compound: CCOc1ccc(C(=O)Nc2cccc(-c3csc(C)n3)c2)cc1 ; wanted: its thermal shift dTm
Ans: -0.65 °C (inactive)

----------
# experimental.system: Sulfhydryl oxidase 1 (Homo sapiens)
# assay.protocol: QSOX1 binders by thermal stabilization, confirmation, QSOX1 inhibitor project, biophysical, protein thermal shift, single concentration (AID 1347422);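 also: dTm is compound Tm minus mean Tm of DMSO-only wells on that plate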
# condition.parameters: recombinant hQSOX1 thermal shift, Sypro Orange, at 25 µM, stronger effect = higher value
Whole data set: some 1,000 compounds, median “thermal shift dTm” near 0.19, cut for the highest 2% near 1.7. The sample as a whole holds a higher share of the highest values than the screen did. Active and inactive are the calls of the source.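 The calls were made as follows: active = mean rise in melting temperature of at least 1 degC over same-plate control wells; inactive = below that, where a call was filed.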
So I've got a bunch of molecules here, and I need their thermal shift dTm values.

Here are 6 molecules together with their reported answers.
| molecule | experimental.system | experimental.readout | recorded.result |
| --- | --- | --- | --- |
| NC(=O)c1ccc(NC(=O)C2CC2(c2ccccc2)c2ccccc2)cc1 (stereo not drawn) | Sulfhydryl oxidase 1 (Homo sapiens) | thermal shift dTm | 0.19 °C |
| COc1ccc2[nH]cc(CCNC(=O)c3cccc(Cl)c3)c2c1 | Sulfhydryl oxidase 1 (Homo sapiens) | thermal shift dTm | 1.74 °C (active) |
| COC(=O)c1cccc(NC(=O)c2ccc(Cl)s2)c1 | Sulfhydryl oxidase 1 (Homo sapiens) | thermal shift dTm | 0.04 °C |
| O=C(Nc1n[nH]c(-c2ccccc2)n1)N1CCC2(C=Cc3ccccc32)CC1 | Sulfhydryl oxidase 1 (Homo sapiens) | thermal shift dTm | 0.09 °C |
| COc1ccc(-c2nc(-c3cccs3)c(-c3cccs3)[nH]2)cc1 | Sulfhydryl oxidase 1 (Homo sapiens) | thermal shift dTm | 0.25 °C |
| FC(F)(F)c1ccccc1NC(=S)Nc1ccc(OCc2ccccc2)cc1 | Sulfhydryl oxidase 1 (Homo sapiens) | thermal shift dTm | 0.68 °C |

Record thermal shift dTm per entry; entries follow.
1. Oc1ccccc1C=Nc1ccc(Cc2ccc(N=Cc3ccccc3O)c(O)c2)cc1O
2. C=C(C)COc1ccc(NC(=O)c2cccnc2)cc1
3. CN(C(=O)Nc1ccc(F)cc1)c1ccccc1
4. COc1ccc(-c2csc(NC(=O)c3ccc(Cl)s3)n2)cc1
5. COc1cccc(C(=O)Nc2nc3ccc(Cl)cc3s2)c1

Ans:
1: 0.01 °C; 2: 0.13 °C; 3: -1.43 °C (inactive); 4: 0.05 °C; 5: 0.62 °C

Record thermal shift dTm per entry; entries follow.
1. Cc1nc(NC(=O)c2ccc(Br)s2)sc1C
2. CCCc1cc(=O)[nH]c(SCC(=O)Nc2nc(-c3ccccc3)cs2)n1
3. Cc1cnc(CNCc2ccccc2OCC(O)CN(C)C2CCCCC2)cn1 (stereo not drawn)
4. CCc1sc(NC(=O)Cc2ccc(F)cc2)nc1-c1ccccc1
5. c1csc(-c2nc(-c3cccs3)c(-c3cccs3)[nH]2)c1
6. Cc1ccc(NC(=O)Nc2ccc3snnc3c2)cc1
7. O=C(Nc1nccs1)c1cccc(NC(=O)c2cc3ccccc3o2)c1
8. COc1ccc(S(=O)(=O)NC(C)C2C3CC4CC(C3)CC2C4)cc1 (stereo not drawn)

Ans:
1: 0.27 °C; 2: 1.07 °C (active); 3: 0.14 °C; 4: 0.17 °C; 5: 0.06 °C; 6: -0.45 °C (inactive); 7: 1.07 °C (active); 8: -0.18 °C (inactive)

Record thermal shift dTm per entry; entries follow.
1. Cc1ccc(-c2noc(CNC(=O)C34CC5CC(CC(C5)C3)C4)n2)cc1
2. COc1ccc2[nH]cc(CCNC(=O)c3ccc(OC(C)=O)cc3)c2c1
3. O=C(Nc1ccc(C(F)(F)F)cc1Cl)c1cc([N+](=O)[O-])[nH]n1
4. O=C(CCC(=O)OCc1ccc(Br)cc1)Nc1cc(C(F)(F)F)ccc1Cl

Ans:
1: 0.16 °C; 2: 0.81 °C; 3: 1.73 °C (active); 4: 0.17 °C
